Assay: qHTS RealTime-Glo MT Cell Viability Assay in HEK293 cells - 8 hour (AID 1224887); further: nearly all actives have a fitted effect of over 50% in size
Conditions: RealTime-Glo luminescence; series mostly up to 76.8 µM
Records with an inconclusive call do not appear. Calls of active or inactive are those of the source. The call rests on the fitted dose curve; in most records, active means well fitted cell-killing curve with a large enough effect in the repeat runs; inconclusive means weak or mixed curves, or effect the other way; inactive means flat fitted curve, though single readings scatter.
Respond with a class label; see class 1 = active, class 0 = inactive

Q. Please let me know the test result on file for Nc1nc(N)nc(-c2cc(Cl)ccc2Cl)n1 .
A. class 0

Q. What is the recorded call for this molecule in the test? c1ccsc1
A. class 0

Q. Outcome logged for CCOC(=O)c1ccc(C2CCC(NC[C@H](O)COc3ccc(O)c(NS(C)(=O)=O)c3)CC2)cc1 (some centres undefined) in this assay:
A. class 1

Q. Could you kindly confirm the outcome this assay logged for O=C(/C=C/c1ccc(O)c(O)c1)O[C@@H](C(=O)O)[C@@H](OC(=O)/C=C/c1ccc(O)c(O)c1)C(=O)O ?
A. class 0

Q. Please state the recorded outcome for this molecule: Cc1c(F)c(N2CCNC(C)C2)cc2c1c(=O)c(C(=O)O)cn2C1CC1 (centres undefined)
A. class 0

Q. Which outcome was assigned to Oc1ccccc1O in this test?
A. class 0

Q. Outcome logged for Cc1ccc(-c2ccccc2)cc1 in this assay:
A. class 0

Q. # lookup: test call for Cc1c(C)c2c(c(C)c1OC(=O)c1cccnc1)CC[C@@](C)(CCC[C@H](C)CCC[C@H](C)CCCC(C)C)O2
A. class 0

Q. Please let me know the test result on file for CC(N=C(NC#N)Nc1ccncc1)C(C)(C)C (centres undefined) .
A. class 0

###

Test: qHTS assay to identify small molecule antagonists of the peroxisome proliferator-activated receptor delta (PPARd) signaling pathway - cell viability counter screen (AID 743213); further: nearly all actives have a fitted effect of over 50% in size
Conditions: PPARd-bla HEK293H viability, CellTiter-Glo luminescence, 17 h; series mostly up to 62 µM
From the text: U.S. Tox21 Program National Center for Advancing Translational Sciences [NCATS] NIH Chemical Genomics Center [NCGC] U.S. Environmental Protection Agency [EPA] National Institutes of Environmental Health Sciences [NIEHS] National Toxicology Program [NTP] U.S. Food and Drug Administration [FDA] […]
Records with an inconclusive call do not appear. Calls of active or inactive are those of the source. The call rests on the fitted dose curve; in most records, active means well fitted cell-killing curve with a large enough effect in the repeat runs; inconclusive means weak or mixed curves; inactive means no such curve, though single readings can be large or run the other way.
Give one outcome, nothing more. List: Y = active, N = inactive

Q. Assay result, entry Cc1c2ccccc2c(C)c2c1ccc1ccccc12 — outcome?
A. Y

Q. GET /call?item= CCCC[P+](C)(CCCC)CCCC returns the recorded outcome of this test.
A. N

Q. Dear all, I need the recorded test outcome for CCCCCCCCCCCC(=O)OCC(C)OC(=O)CCCCC(=O)O (stereo not given) , thank you.
A. N

Q. For C#C[C@]1(O)CC[C@H]2[C@@H]3[C@H](C)CC4=C(CCC(=O)C4)[C@H]3CC[C@@]21C , which call appears in the assay record?
A. N

Q. Query: recorded result category for CCCCCCCCCCC[C@@H](C[C@@H]1OC(=O)[C@H]1CCCCCC)OC(=O)[C@H](CC(C)C)NC=O in this test
A. N

Q. Short answer needed: outcome of this test for CCCCNS(=O)(=O)c1ccc(C)cc1 ?
A. N

Q. What outcome does the record of this test show for COc1cccc(OC)c1C(=O)O ?
A. N

Q. Called result for COC(=O)Nc1nc2ccc(C(=O)c3ccccc3)cc2[nH]1
A. N

Q. Outcome? CN(C)Cc1ccccc1O
A. N

Q. Recorded test call requested for C#C[C@]1(OC(C)=O)CC[C@H]2[C@@H]3CCC4=C[C@@H](OC(C)=O)CC[C@@H]4[C@H]3CC[C@@]21C
A. N

Q. Per the assay record, what outcome was assigned to COCCOc1cc2cc(C(=O)NC3CCN(C(C)C)CC3)n(CC(=O)Nc3ccc(Cl)cn3)c2cn1 ?
A. N

Q. Can you look up the reported call for O=[N+]([O-])c1cccc(C(F)(F)F)c1 for me?
A. N

Q. So what was the verdict on S=c1nccc[nH]1 in this test?
A. N

Q. How did this test come out for CNc1ccc([N+](=O)[O-])cc1 ?
A. N

Q. # lookup: test call for CCCCCCCC
A. N

Q. Which outcome was entered for the compound FC(F)(F)c1cccc(Cl)c1 in this test?
A. N

Q. What is the recorded call for this compound in the test? O=C(Nc1ccc2c(O)c(N=Nc3ccc(N=Nc4ccc(S(=O)(=O)O)cc4)cc3)c(S(=O)(=O)O)cc2c1)c1ccccc1
A. N

Q. Test call, this compound: Clc1sc(Cl)c(Cl)c1Cl
A. N

Q. Hi, sorry to bother you, what did the test record for CC(C)CCOC(=O)/C=C/c1ccccc1 ?
A. N

Q. Recorded test outcome, item Cc1c(F)c(N2CCNC(C)C2)cc2c1c(=O)c(C(=O)O)cn2C1CC1 (stereo not given)
A. N

Q. How was Nc1nc(N)nc(-c2cc(Cl)ccc2Cl)n1 classified in this test?
A. N

Q. Which outcome did this test record for the compound CCOc1ccc2ccccc2c1C(=O)N[C@@H]1C(=O)N2[C@@H]1SC(C)(C)[C@@H]2C(=O)O ?
A. N

Q. Which outcome did this test record for the compound Cc1ccc(C(=O)O)cc1 ?
A. N

Q. Dear colleague, could you share the recorded outcome for C1CCC(SSC2CCCCC2)CC1 when you have a moment?
A. N

Q. Field: outcome | Entry: COc1ccc2c(c1)c(CC(=O)OC/C=C(\C)CC/C=C(\C)CCC=C(C)C)c(C)n2C(=O)c1ccc(Cl)cc1
A. N
